test system: Influenza A virus hemagglutinin (whole virus as assayed) (Influenza A virus H3N2 A/Texas/1977 (A/Texas/1/77)); assay: competition ELISA; settings: PBS, room temperature, […] (0.5-500 nM) […] (5 nM)
Threshold check on relative binding affinity (IC50 ratio vs BV02) (IC50(BV02)/IC50): at or above 1 gives Fulfilled, strictly below gives Not fulfilled.

These recorded examples may help you get a feel for the data.
AACGCTCACTCCCCCAAGAACCCCCCCCCCATGCACCCCCCCCCCAGTGAGCGTT [BV45e]: Fulfilled
AATTAACCCTCACTAAAGGGCTGATGCGGAATAAGTTAAAACCGCAGGTATACACTGGTTGTATCGAA [BV02a]: Not fulfilled
AACGCTCACTCCCCCCCCACCCCCCCCACCCCCCCCACCCCCCCCAGTGAGCGTT [BV35n]: Fulfilled
AACCCTCACTCTCAAAACCGCAATACAGTGAGGGTT [BV19h]: Not fulfilled
AACCCTCACTCCGACTCACTCAAAACCGCAATACACTCAGCCAGTGAGGGTT [BV19f]: Not fulfilled

Threshold query (relative binding affinity (IC50 ratio vs BV02) (IC50(BV02)/IC50) >= 1) on AACGCTCACTAAACCCCCCCCCACCCCCCCCCACCCCCCCCCAAAAGTGAGCGTT [BV45a]
Fulfilled

One more sequence: AACGCTCACTCCCCCCCCCCCCCCCCCCCAGTGAGCGTT [BV35g]
Not fulfilled

One more sequence: AATTAACCCTGACTAAAGGGGTGAGTCTCAAAACCGCAATACACTCAGCCCTTTAGTGAGGGTTAATT [BV19i]
Not fulfilled
